Where do these numbers come from? They come from patent US9839642B2.

molecular target: VIM-1 (Pseudomonas aeruginosa, UniProt A0A0F7KYQ8); test: Enzyme activity: determination of IC50, fluorescence assay with CCF2-FA substrate; type: biochemical; conditions: enzyme 30 pM, CCF2-FA 1.25 μM, 2 hours at 25° C.; read-out: VIM1 IC50
log10 of IC50: recorded values
metric: log10 of IC50 (log10 of the value in nM)

compound="CC(C)C[C@H](C(=O)O)[C@H](Cc1ccc(C2CCNC2)nc1)c1nnn[nH]1 (some centres unmarked) [Example 100]" metric="log10 of IC50" observedmeasurement=0.69
compound="CC(C)[C@H](C(=O)O)[C@H](Cc1ccc(-c2ccc(N)nc2)cc1)c1nnn[nH]1 [Example 73]" metric="log10 of IC50" observedmeasurement=0.85
compound="CCC[C@H](C(=O)O)[C@H](Cc1ccc(-c2ccc3c(c2)CNC3=O)cc1)c1nnn[nH]1 [Example 234]" metric="log10 of IC50" observedmeasurement=0.46
compound="CC(C)C[C@H](C(=O)O)[C@H](Cc1ccc(-c2ccc(CO)cc2)nc1)c1nn[nH]n1 [Example 177]" metric="log10 of IC50" observedmeasurement=0.71
compound="CCC[C@H](C(=O)O)[C@H](Cc1ccc(-c2c(C)nn(C)c2C)nc1)c1nnn[nH]1 [Example 158]" metric="log10 of IC50" observedmeasurement=1.40
compound="O=C(O)[C@@H](C1CCCC1)[C@H](Cc1ccc(C2=CCNC2)cn1)c1nnn[nH]1 [Example 66]" metric="log10 of IC50" observedmeasurement=1.26
compound="CC(C)[C@H](C(=O)O)[C@H](Cc1ccc(NC(CO)CO)nc1)c1nnn[nH]1 [Example 141]" metric="log10 of IC50" observedmeasurement=2.90
compound="CCC[C@H](C(=O)O)[C@H](Cc1ccc(Oc2ccc(CN)cc2)nc1)c1nnn[nH]1 [Example 131]" metric="log10 of IC50" observedmeasurement=0.28
compound="CCC[C@H](C(=O)O)[C@H](Cc1cnc(N2CCNCC2)s1)c1nnn[nH]1 [Example 120]" metric="log10 of IC50" observedmeasurement=0.93
compound="CC(C)C[C@H](C(=O)O)[C@H](Cc1ccc(-c2ccc(CN)cc2)cn1)c1nn[nH]n1 [Example 174]" metric="log10 of IC50" observedmeasurement=2.04
compound="CCC[C@H](C(=O)O)[C@H](Cc1ccnc(N)c1)c1nnn[nH]1 [Example 118]" metric="log10 of IC50" observedmeasurement=1.00
compound="CCC[C@H](C(=O)O)[C@H](Cc1cccnc1Cl)c1nnn[nH]1 [Example 87]" metric="log10 of IC50" observedmeasurement=0.36
compound="O=C(O)[C@@H](CC(F)F)[C@H](Cc1ccccc1)c1nnn[nH]1 [Example 22]" metric="log10 of IC50" observedmeasurement=1.15
compound="CCC[C@H](C(=O)O)[C@H](Cc1ccc(NCCn2ccnn2)cc1)c1nn[nH]n1 [Example 221]" metric="log10 of IC50" observedmeasurement=1.43
compound="CC(C)[C@H](C(=O)O)[C@H](Cc1ccc(C2=CCNC2)c(F)c1)c1nnn[nH]1 [Example 69]" metric="log10 of IC50" observedmeasurement=0.11
compound="CCC[C@H](C(=O)O)[C@H](Cc1ccc(C(N)=O)cc1)c1nn[nH]n1 [Example 45]" metric="log10 of IC50" observedmeasurement=0.52
compound="CCC[C@H](C(=O)O)[C@H](Cc1ccc(-c2ccc3c(c2)CCNC3)cc1)c1nnn[nH]1 [Example 237]" metric="log10 of IC50" observedmeasurement=0.60
